Source listed as the Human Domainome abundance scans (Beltran et al. 2025).

abundance fitness values by entry
B1: Zinc finger MYM-type protein 2, residues 463 to 506; numbered along this chain, Q9UBW7 (parent)
chain: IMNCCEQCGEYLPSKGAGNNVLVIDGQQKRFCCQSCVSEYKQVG

- Variants of: B1
- assayText: abundance fitness (aPCA) (normalised: wild type 0, dead -1); higher = more abundant; growth selection in yeast, the domain comes from the species named
- protocolConditions: Homo sapiens
Lab note: record the figure alone, no unit after it.

get_value(item= Q28G , readout=abundance fitness) returns -0.239

Record Y11A , field abundance fitness: 0.176

Data point: Q42A ; abundance fitness = 0.109

Others:
Lab note: measured abundance fitness of G44Q was -0.471

Documented abundance fitness of S14W : -0.454

Lookup result for P13C ; measured abundance fitness: 0.105
